- System Name: Beta-3 adrenergic receptor (Homo sapiens, UniProt P13945)
- Sequence (P13945 whole entry): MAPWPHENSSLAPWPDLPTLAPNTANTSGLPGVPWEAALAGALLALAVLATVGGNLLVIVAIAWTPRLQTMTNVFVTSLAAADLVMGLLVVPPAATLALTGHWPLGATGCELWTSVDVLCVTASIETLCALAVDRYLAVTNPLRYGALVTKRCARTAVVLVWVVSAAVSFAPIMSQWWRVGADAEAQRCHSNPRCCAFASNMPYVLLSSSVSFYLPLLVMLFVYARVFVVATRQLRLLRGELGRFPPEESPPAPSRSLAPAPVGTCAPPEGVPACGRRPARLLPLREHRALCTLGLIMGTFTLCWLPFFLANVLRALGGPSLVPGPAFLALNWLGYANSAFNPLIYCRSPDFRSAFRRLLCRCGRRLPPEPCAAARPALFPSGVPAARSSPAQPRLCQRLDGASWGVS
- Experimental Details: DRUGMATRIX: Adrenergic beta3 radioligand binding (ligand: [125I] Cyanopindolol)
- Format: cell membranes, HEK293, Membrane
- Experimental Parameters: Not Active = under 50% inhibition at 10 µM; read-out: Ki
pKi: −log10 of the molar value.
# pKi per entry

- Molecule: "Clc1ccc(COC(Cn2ccnc2)c2ccc(Cl)cc2Cl)cc1 (stereo not drawn) [ECONAZOLE]"
  pKi: 5.34
- Molecule: "CCN(CC)CCOc1ccc(/C(=C(/Cl)c2ccccc2)c2ccccc2)cc1 [ENCLOMIPHENE]"
  pKi: 5.37
- Molecule: "Cc1cc2c(OCC(CNC(C)(C)C)OC(=O)c3ccccc3)cccc2[nH]1 (stereo not drawn) [BOPINDOLOL]"
  pKi: 6.46

----------
- System Name: Cytochrome P450 2A6 (Homo sapiens, UniProt P11509); further: in other assays of this panel Not Active means under 50% inhibition at 10 µM
- Sequence (P11509 whole entry): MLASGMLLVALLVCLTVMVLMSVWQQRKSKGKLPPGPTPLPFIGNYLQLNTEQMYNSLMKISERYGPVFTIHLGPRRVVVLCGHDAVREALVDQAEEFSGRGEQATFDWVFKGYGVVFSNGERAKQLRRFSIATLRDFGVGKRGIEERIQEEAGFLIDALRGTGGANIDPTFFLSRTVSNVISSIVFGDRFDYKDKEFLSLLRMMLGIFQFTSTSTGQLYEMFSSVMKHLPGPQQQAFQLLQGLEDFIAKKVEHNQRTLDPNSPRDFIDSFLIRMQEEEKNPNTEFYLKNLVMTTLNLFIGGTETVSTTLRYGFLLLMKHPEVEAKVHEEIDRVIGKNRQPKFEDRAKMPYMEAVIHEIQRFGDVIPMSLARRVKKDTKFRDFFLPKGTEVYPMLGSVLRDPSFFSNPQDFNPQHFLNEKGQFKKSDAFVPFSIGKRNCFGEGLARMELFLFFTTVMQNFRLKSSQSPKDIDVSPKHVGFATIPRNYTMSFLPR
- Experimental Parameters: bti-tn-5b1-4

- Molecule: "C[C@H]1C[C@@H]2[C@H]([C@@H](O)C[C@@]3(C)[C@H]2CC[C@]3(O)C(=O)CO)[C@@]2(C)C=CC(=O)C=C12 [METHYLPREDNISOLONE]"
  IC50: "Not Active"
- Molecule: "CC(C)Cc1ccc([C@@H](C)C(=O)O)cc1 [(R)-IBUPROPHEN]"
  IC50: "Not Active"
- Molecule: "Cn1c(=O)c2[nH]cnc2n(C)c1=O.Cn1c(=O)c2[nH]cnc2n(C)c1=O.NCCN [AMINOPHYLLINE]"
  IC50: "Not Active"
- Molecule: "CN(C)CC[C@@H](c1ccc(Cl)cc1)c1ccccn1 [DEXCHLORPHENIRAMINE]"
  IC50: "Not Active"
- Molecule: "CC(C)Oc1ccc2c(=O)c(-c3ccccc3)coc2c1 [IPRIFLAVONE]"
  IC50: "Not Active"

----------
- System Name: Aldo-keto reductase family 1 member B1 (Rattus norvegicus, UniProt P07943); further: in other assays of this panel Not Active means under 50% inhibition at 10 µM;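 further: inhibition of aldose reductase enzyme activity, measured with DL-glyceraldehyde as the substrate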
- Type: tissue-based, Lens of camera-type eye

- Compound: "COC(=O)CCc1ccc(OCC(O)CNC(C)C)cc1 (stereo not drawn)"
  IC50: "Not Active"
- Compound: "CC(=O)[C@H]1[C@H](C#N)C[C@H]2[C@@H]3CC=C4C[C@@H](O)CC[C@]4(C)[C@H]3CC[C@@]21C"
  IC50: "Not Active"
- Compound: "CCCNCC(O)COc1ccccc1C(=O)CCc1ccccc1 (stereo not drawn)"
  IC50: "Not Active"
- Compound: "O=C1Nc2ccc(Cl)cc2C(c2ccccc2Cl)=NC1O (stereo not drawn)"
  IC50: "Not Active"
- Compound: "CC(C)=CCC/C(C)=C/CO"
  IC50: "Not Active"
- Compound: "CCCCNc1ccc(C(=O)OCCN(C)C)cc1"
  IC50: "Not Active"
- Compound: "C[C@]12C=CC(=O)C=C1CC[C@@H]1[C@@H]2[C@@H](O)C[C@@]2(C)[C@H]1CC[C@]2(O)C(=O)CO"
  IC50: "Not Active"
- Compound: "CC(=O)Oc1ccc(C(c2ccc(OC(C)=O)cc2)c2ccccn2)cc1"
  IC50: "Not Active"
- Compound: "COc1cc2nc(N3CCN(C(=O)c4ccco4)CC3)nc(N)c2cc1OC"
  IC50: "Not Active"
- Compound: "O=C(Oc1ccccc1C(=O)O)c1ccccc1O [SALSALATE]"
  IC50: "Not Active"
- Compound: "O=C(O)c1cn(-c2ccc(F)cc2)c2cc(N3CCNCC3)c(F)cc2c1=O"
  IC50: "Not Active"
- Compound: "COC(=O)Nc1nc2ccc([S+]([O-])c3ccccc3)cc2[nH]1 (stereo not drawn)"
  IC50: "Not Active"
- Compound: "C[C@@H]1CC[C@@]2(OC1)O[C@H]1[C@@H](O)[C@H]3[C@@H]4CC[C@H]5C[C@@H](O[C@@H]6O[C@H](CO)[C@H](O[C@@H]7O[C@H](CO)C(O)[C@H](O[C@@H]8OC[C@@H](O)[C@H](O)[C@H]8O)[C@H]7O[C@@H]7O[C@H](CO)[C@H](O)[C@H](O[C@@H]8O[C@H](CO)[C@@H](O)[C@H](O)[C@H]8O)[C@H]7O)[C@H](O)[C@H]6O)[C@H](O)C[C@]5(C)[C@H]4CC[C@]3(C)[C@H]1[C@@H]2C (stereo partly drawn)"
  IC50: "Not Active"
- Compound: "Cc1c(OCC(F)(F)F)ccnc1C[S+]([O-])c1nc2ccccc2[nH]1 (stereo not drawn)"
  IC50: "Not Active"
- Compound: "Cn1c(=O)c2c(ncn2CC(O)CO)n(C)c1=O (stereo not drawn)"
  IC50: "Not Active"
- Compound: "C[C@@H]1C[C@H]2[C@@H]3CCC4=CC(=O)C=C[C@]4(C)[C@@]3(F)[C@@H](O)C[C@]2(C)[C@H]1C(=O)CO"
  IC50: "Not Active"
- Compound: "CC[C@H]1CN2CCc3cc(OC)c(OC)cc3[C@@H]2C[C@@H]1C[C@H]1NCCc2cc(OC)c(OC)cc21"
  IC50: "Not Active"
- Compound: "CCN(CC)CCOc1ccc(/C(=C(/Cl)c2ccccc2)c2ccccc2)cc1"
  IC50: "Not Active"
- Compound: "COc1ccc(C(=O)N2CCCC2=O)cc1"
  IC50: "Not Active"
- Compound: "NC1CCN(c2nc3c(cc2F)c(=O)c(C(=O)O)cn3-c2ccc(F)cc2F)C1 (stereo not drawn)"
  IC50: "Not Active"
- Compound: "COc1cc(N)c(Cl)cc1C(=O)NC1CCN(CCCOc2ccc(F)cc2)CC1OC (stereo not drawn) [CISAPRIDE]"
  IC50: "Not Active"
- Compound: "O=C/C=C/c1ccccc1"
  IC50: "Not Active"
- Compound: "Oc1cccc(O)c1O"
  IC50: "Not Active"
- Compound: "NCCCC(O)(P(=O)(O)O)P(=O)(O)O"
  IC50: "Not Active"
- Compound: "CC(C)NCC(O)c1ccc(O)c(O)c1 (stereo not drawn)"
  IC50: "Not Active"
- Compound: "CCN(CC)CCOCCC1=CCC2CC1C2(C)C (stereo not drawn)"
  IC50: "Not Active"
- Compound: "Oc1c(Cl)cc(Cl)c(Cl)c1Cc1c(O)c(Cl)cc(Cl)c1Cl"
  IC50: "Not Active"
- Compound: "N=C(N)NC(=O)Cc1c(Cl)cccc1Cl"
  IC50: "Not Active"
- Compound: "NC(=O)N1C(=O)/C(=C(\\O)c2cccs2)c2cc(Cl)ccc21"
  IC50: "Not Active"
- Compound: "Cn1c(=O)c2[nH]cnc2n(C)c1=O.Cn1c(=O)c2[nH]cnc2n(C)c1=O.NCCN"
  IC50: "Not Active"
- Compound: "O=C1C(CC[S+]([O-])c2ccccc2)C(=O)N(c2ccccc2)N1c1ccccc1 (stereo not drawn)"
  IC50: "Not Active"
- Compound: "CO[C@H]1/C=C/O[C@@]2(C)Oc3c(C)c(O)c4c(O)c(c(/C=N/N5CCN(C6CCCC6)CC5)c(O)c4c3C2=O)NC(=O)/C(C)=C\\C=C\\[C@H](C)[C@H](O)[C@@H](C)[C@@H](O)[C@@H](C)[C@H](OC(C)=O)[C@@H]1C"
  IC50: "Not Active"
- Compound: "CC(C)NCC(O)COc1cccc2[nH]ccc12 (stereo not drawn)"
  IC50: "Not Active"
